Target: T1, human hepcidin (SEQ ID NO: 9), mature, correctly folded (human, not fully specified)
T1 construct: 25-residue mature peptide with four disulfides (C7-C23, C10-C13, C11-C19, C14-C22); Recombinant (E. coli or CHO) or synthetic, by assay; also called rhHepc; shHepc
T1 peptide: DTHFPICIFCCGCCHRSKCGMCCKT
Assay: BIAcore: 1 nM antibody preincubated with 10 nM of this hepcidin form in solution, then run over immobilized rhHepc surface; % = free antibody still binding the surface (low % = strong binding to the solution form)
Binding to Hepcidin Surface (%) values for the binders below.
MEASURED PARAMETER: Binding to Hepcidin Surface (%)

murine anti-human hepcidin monoclonal antibody Ab43 (antibody, V domains shown, Mouse hybridoma monoclonal; also called mAB 43) VH: QIQLVQSGPELKKPGETVKISCKASGYTFTTYGMSWVKQAPGKGLKWMGWINTYSGVPTYADDFKGRFAFSLETSASTAYLQINNLKNEDTATYFCASLWYYGRAFDYWGQGTTLTVSS VL: NIVLTQSPASLAVSLGQRATISCRASESVDSYGNSFMHWYQQKPGQPPKLLIYLASNLESGVPARFSGSGSRTDFTLTIDPVEADDAATYYCQQNNEDRTFGGGTKLEIK
11%
murine anti-human hepcidin monoclonal antibody 2.41 (antibody, V domains shown, Mouse hybridoma monoclonal) VH: QIQLVQSGPELKKPGETVKISCKASGYTFTTYGMSWVKQAPGKGLKWMGWINTSSGVPTYADDFMGRFAFSLETSASTAYLQINNLKNEDTATYFCARDRYYGEVAYWGQGTLVTVSA VL: DIVLTQSPASLAVSLGQRATISCRASESVDSFGNSFMHWYQLKPGQPPKLLIYRASNLESGIPARFSGSGSRTDFTLTINPVEADDVAIYYCQQSNEEYTFGGGTKLEIK
0%
rat anti-human hepcidin monoclonal antibody R9 (antibody, V domains shown, Rat hybridoma monoclonal; also called mAb R9) VH: QVTLKESGPGILQPSQTLSLTCSFSGFSLSTSGICVSWIRQPSGKGLEWLATICWEDSKGYNPSLKNRLTISKDTSNNQAFLKITSVDTADTAIYYCARPLNYGGYSELELDYWGQGVMVTVSS VL: DIQMTQSPSLLSASVGDRVTLSCKASQNIYKYLNWYQQKLGEAPKLLIYYTNSLQTGIPSRFSGSGSGTDFTLTISSLQPEDVATYYCYQYNSGPTFGAGTKLELK
79%
murine anti-human hepcidin monoclonal antibody 2.7 (antibody, V domains shown, Mouse hybridoma monoclonal; Murine IgG1 was used as its isotypic control; also called Ab2.7; Ab 2.7) VH: QIQLVQSGPELKKPGETVKISCKASGYTFTTYGMSWVKQAPGKGLKWMGWINTYSGVPTYADDFKGRFAFSLETSASTAYLQINNLKNEDTATYFCGRDHYYGEVAYWGQGTLVTVSA VL: DIVLTQSPASLAVSLGQRATISCRASESVDSYGNSFMHWYQQKPGQPPKLLIYRASNLESGIPARFSGSGSRTDFTLTINPVEADDVATYYCHQSNEEYTFGGGTKLEIK
2%
